# TARGET_DESC: CCR2 (Homo sapiens, UniProt P41597)
# Construct: Membranes were prepared from THP-1 cells; endogenous in cells; host or cells: THP-1 (human acute monocytic leukaemia cells), membrane preparation
# Sequence (P41597 1-360 isoform P41597-2): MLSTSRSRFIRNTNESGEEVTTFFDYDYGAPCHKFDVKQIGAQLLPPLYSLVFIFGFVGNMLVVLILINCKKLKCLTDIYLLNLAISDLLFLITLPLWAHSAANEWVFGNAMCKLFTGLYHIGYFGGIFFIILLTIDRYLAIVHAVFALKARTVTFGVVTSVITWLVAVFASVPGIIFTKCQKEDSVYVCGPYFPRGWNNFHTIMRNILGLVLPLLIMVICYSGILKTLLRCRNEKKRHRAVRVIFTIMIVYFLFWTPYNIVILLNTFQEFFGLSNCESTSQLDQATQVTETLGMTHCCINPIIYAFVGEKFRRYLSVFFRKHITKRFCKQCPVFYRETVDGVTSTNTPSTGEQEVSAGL
# PROTOCOL_TEXT: CCR2 receptor membrane binding assay (THP-1 membranes, 125I-MCP-1, SPA beads)
# CONDITIONS_USED: THP-1 cell membranes, 125I-MCP-1, 8 h; read-out: hKi [nM] (CCR2)
OBSERVATION_TYPE: Ki (nM)

COMPOUND	TARGET_DESC	OUTPUT_UNIT	Ki
COc1nc(Nc2cccc(C(F)(F)F)c2)c(C)c(C(=O)N2CCC(N3CCO[C@@H]4COCC[C@@H]43)CC2)n1 (single isomer, unassigned) [Example 36b]	CCR2 (Homo sapiens, UniProt P41597)	nM	42

[1] Cc1c(Nc2ccc(Cl)c(Cl)c2)nc(C2CC2)nc1C(=O)N1CCC(N2CCO[C@H]3COCC[C@H]32)CC1 (single isomer, unassigned) [Example 35a]
[2] Cc1c(Nc2cccc(C(F)(F)F)c2)ncnc1C(=O)N1CCC(N2CCO[C@H]3COCC[C@H]32)CC1 [Example 5]
[3] Cc1c(Nc2ccc(Cl)c(Cl)c2)ncnc1C(=O)N1CCC(N2CC3CN(S(C)(=O)=O)CC3C2)CC1 (centres unmarked) [Example 15]
[4] Cc1c(NC[C@H]2CCC[C@@H](c3ccc(C(F)(F)F)cc3)O2)ncnc1C(=O)N1CCC(N2C[C@H]3C[C@@H](N(C)S(C)(=O)=O)C[C@H]3C2)CC1 [Example 9]
**Q:** Place the items in sequence of falling Ki. Give me the labels in the order the question wants.
**A:** 2, 3, 1, 4

[1] Cc1c(NC[C@H]2CCC[C@@H](c3ccc(OC(F)(F)F)cc3)O2)ncnc1C(=O)N1CCC(N2CCO[C@H]3COCC[C@H]32)CC1 (single isomer, unassigned) [Example 33]
[2] Cc1c(NC[C@H]2CCC[C@@H](c3ccc(OC(F)(F)F)cc3)O2)ncnc1C(=O)N1CCC(N2CCO[C@@H]3COCC[C@H]32)CC1 (single isomer, unassigned) [Example 34]
**Q:** Identify the entry with the smaller Ki: 1 or 2 . Provide the label of your selected option as the answer.
**A:** 1
(1: 1 nM, 2: 26 nM)

[a] Cc1c(Nc2cccc(C(F)(F)F)c2)nc(C2CC2)nc1C(=O)N1CCC(N2CCO[C@H]3COCC[C@H]32)CC1 (single isomer, unassigned) [Example 39a]
[b] Cc1c(C(=O)N2CCC(N3CCOC4COCCC43)CC2)ncnc1N1CCc2ccc(C(F)(F)F)cc2C1 (centres unmarked) [Example 23]
[c] Cc1ccc([C@@H]2CCC[C@H](CNc3ncnc(C(=O)N4CCC(N5C[C@H]6C[C@@H](N(C)S(C)(=O)=O)C[C@H]6C5)CC4)c3C)O2)cc1 [Example 6]
[d] Cc1c(C(=O)N2CCC(N3CCO[C@H]4COCC[C@H]43)CC2)ncnc1N1CCc2ccc(C(F)(F)F)cc2C1 [Example 3]
**Q:** Rank descending by Ki. // ordering of labels required in reply
**A:** b, d, a, c
(b: 17 nM, d: 4 nM, a: 1 nM, c: 0.3 nM)

[a] COc1nc(Nc2cccc(C(F)(F)F)c2)c(C)c(C(=O)N2CCC(N3CCO[C@H]4COCC[C@H]43)CC2)n1 [Example 27]
[b] Cc1c(NC[C@H]2CCC[C@@H](c3ccccc3)C2)ncnc1C(=O)N1CCC(N2C[C@H]3C[C@@H](N(C)S(C)(=O)=O)C[C@H]3C2)CC1 [Example 11]
[c] Cc1c(NC[C@H]2CCC[C@@H](c3ccc(C(F)(F)F)cc3)O2)ncnc1C(=O)N1CCC(N2CC3COCC3C2)CC1 (some centres unmarked) [Example 17]
**Q:** Endpoint returns the given compounds ordered by ascending Ki. // rank by listing labels in the order requested
**A:** b, a, c
(b: 0.8 nM, a: 3 nM, c: 16 nM)

[P] Cc1c(Nc2ccc(Cl)c(Cl)c2)ncnc1C(=O)N1CCC(N2CCO[C@H]3COCC[C@H]32)CC1 [Example 4]
[Q] Cc1c(Nc2ccc(Cl)c(Cl)c2)nc(C2CC2)nc1C(=O)N1CCC(N2CCO[C@H]3COCC[C@H]32)CC1 [Example 26]
**Q:** Exercise: compare P and Q ; which one has the greater Ki? Answer = label.
**A:** P
